For each entry below, report its pEC50 value.
target: T1, human CCR8 (human, UniProt P51685 1-355); experiment: FACS, CHO-K1-hCCR8 cells
T1 construct: whole, on cells; construct used for the overexpressing cell lines is not described; also called hCCR8
T1 sequence (P51685 whole entry): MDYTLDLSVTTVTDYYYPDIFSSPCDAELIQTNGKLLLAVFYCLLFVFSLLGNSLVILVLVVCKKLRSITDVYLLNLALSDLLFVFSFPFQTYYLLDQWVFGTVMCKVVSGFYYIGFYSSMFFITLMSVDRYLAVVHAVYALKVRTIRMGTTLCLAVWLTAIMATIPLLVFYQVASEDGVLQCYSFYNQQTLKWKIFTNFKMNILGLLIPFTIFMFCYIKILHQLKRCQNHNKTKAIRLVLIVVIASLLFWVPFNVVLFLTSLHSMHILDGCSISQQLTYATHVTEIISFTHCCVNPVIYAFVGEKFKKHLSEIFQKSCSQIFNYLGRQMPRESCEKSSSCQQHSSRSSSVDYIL
Answer as the number alone; pEC50 is minus log10 of concentration in mol/L.

Query :: I am curious: what pEC50 value has been reported for PR004335 (antibody, human IgG1, kappa, V domains shown, heavy-chain semi-humanized variant of PR004128, IgG1 with DE mutation) VH: EVQLVESGGGLVQPGGSLRLSCAASGFTFNTYAMNWVRQAPGKGLEWVSRIRSKSNNYATYYADSVKDRFTISRDDSKSTLYLQMNSLRAEDTAVYYCVRGKENGNYYAMDYWGQGTTVTVSS VL: DIVMTQAAPSVPVTPGESVSISCRSSKSLLHSNGKIYLYWFLQRPGQSPQLLIYRMSNLASGVPDRFSGSGSGTAFTLRISRVEAEDVGVYYCMQHLEYPLTFGAGTKLEIKR ?
Result :: 9.01

Query :: Again, but for PR004326 (antibody, human IgG1, kappa, V domains shown, PTM variant of PR004128, IgG1 with DE mutation) VH: EVQLVESGGGLVQPKGSLKLSCAASGFTFNTYAMNWVRQAPGKGLEWVARIRSKSNNYATYYADSVKDRFTISRDDSQSMLYLQMNNLKTEDTAMYYCVRGKENANYYAMDFWGQGTSVTVSA VL: DIVMTQAAPSVPVTPGESVSISCRSSKSLLHSNGKIYLYWFLQRPGQSPQLLIYRMSNLASGVPDRFSGSGSGTAFTLRISRVEAEDVGVYYCMQHLEYPLTFGAGTKLEIKR
Result :: 9.43

Query :: Again, but for PR004345 (antibody, human IgG1, kappa, V domains shown, light-chain semi-humanized variant of PR004128, IgG1 with DE mutation) VH: EVQLVESGGGLVQPKGSLKLSCAASGFTFNTYAMNWVRQAPGKGLEWVARIRSKSNNYATYYADSVKDRFTISRDDSQSMLYLQMNNLKTEDTAMYYCVRGKENGNYYAMDFWGQGTSVTVSA VL: DIVMTQSPLSLPVTLGQPASISCRSNKSLLHSNGNTYLYWFQQRPGQSPRLLIYRMSNLASGVPDRFSGSGSGTDFTLKISRVEAEDVGVYYCMQHLEYPLTFGQGTKLEIKR
Result :: 8.95

Query :: Again, but for PR004336 (antibody, human IgG1, kappa, V domains shown, heavy-chain semi-humanized variant of PR004128, IgG1 with DE mutation) VH: EVQLVESGGGLVQPGGSLKLSCAASGFTFNTYAMNWVRQASGKGLEWVGRIRSKSNNYATYYADSVKDRFTISRDDSKSTLYLQMNSLKTEDTAVYYCVRGKENGNYYAMDFWGQGTTVTVSS VL: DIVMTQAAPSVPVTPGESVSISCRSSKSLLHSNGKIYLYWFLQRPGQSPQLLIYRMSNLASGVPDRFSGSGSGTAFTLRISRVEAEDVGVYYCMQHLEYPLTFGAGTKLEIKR
Result :: 9.10

Query :: Again, but for PR004334 (antibody, human IgG1, kappa, V domains shown, heavy-chain semi-humanized variant of PR004128, IgG1 with DE mutation) VH: EVQLVESGGGLVQPGGSLRLSCAASGFTFNTNAMNWVRQAPGKGLEWVSRIRSKSNNYATYYADSVKDRFTISRDDSKSTLYLQMNSLRAEDTAVYYCVRGKENGNYYAMDFWGQGTTVTVSS VL: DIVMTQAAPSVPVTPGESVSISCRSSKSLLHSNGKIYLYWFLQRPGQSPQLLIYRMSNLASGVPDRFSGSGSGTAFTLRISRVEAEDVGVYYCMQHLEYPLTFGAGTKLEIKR
Result :: 8.88
